The measured values listed here are drawn from the Biogen ADME set (Fang et al. 2023).

Settings: pH 6.8
testReadout: aqueous solubility (µg/mL)
Just the number in µg/mL, nothing appended.

Documented aqueous solubility of Cc1cc(N(C)C)nc(-n2ccnc2)n1 : 28.5

Documented aqueous solubility of CCN1CCc2ncnc(N(C)Cc3ccc4c(c3)OCCO4)c2C1 : 38.9

Documented aqueous solubility of Cc1ccc(C(=O)NCCc2csc(C)n2)cn1 : 40.4

Documented aqueous solubility of N#Cc1ccc2[nH]c(O)c(-c3ccc(CN4CCOCC4)cn3)c2c1 : 25.9

Documented aqueous solubility of CN(Cc1ccn(-c2ccccc2)n1)C(=O)c1ccc(O)nc1 : 39.6

Documented aqueous solubility of COCCNc1ncnc2ccsc12 : 40.8

Documented aqueous solubility of Cc1ccccc1NC(=O)CN1C(=O)CCC1=O : 36.3

Documented aqueous solubility of Cc1ncc(C(=O)Nc2ncnc3oc(C)c(C)c23)s1 : 53.2

Documented aqueous solubility of CC(C)(CO)NCCCCn1c2ccccc2c2ccccc21 : 31.8

Documented aqueous solubility of O=C(CN1CCCC(c2ccc3cn[nH]c3n2)C1)N1CCCC1 (configuration not stated) : 38

Documented aqueous solubility of CN(CC1(O)CCCC1)c1ncccn1 : 32.6

Documented aqueous solubility of Cc1ccccc1Cn1c(=O)c2c(nc3n(-c4ccccc4O)c(C)cn23)n(C)c1=O : 0.91
